- tgt: Adenosine receptor A3 (Homo sapiens, UniProt P0DMS8)
- Sequence (P0DMS8 whole entry): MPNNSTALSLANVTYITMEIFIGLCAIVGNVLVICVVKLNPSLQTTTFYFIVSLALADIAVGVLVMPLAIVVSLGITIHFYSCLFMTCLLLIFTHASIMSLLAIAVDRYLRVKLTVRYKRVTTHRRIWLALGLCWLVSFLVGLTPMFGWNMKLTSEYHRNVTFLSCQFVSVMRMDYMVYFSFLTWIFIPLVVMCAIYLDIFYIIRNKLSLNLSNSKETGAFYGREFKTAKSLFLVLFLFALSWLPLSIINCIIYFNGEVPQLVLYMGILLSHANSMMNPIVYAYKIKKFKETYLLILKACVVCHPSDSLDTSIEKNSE
AC50 reference

CC(N)CCCC(C)(C)O (stereo not given) : > 30 µM

# input I have this compound here, CN1CCC[C@H]1c1cccnc1 , and I need its recorded AC50.
# output > 30 µM

# input Now try C#Cc1cccc(Nc2ncnc3cc(OCCOC)c(OCCOC)cc23)c1 .
# output 3.01 µM

# input Now try N[C@@H](CSSC[C@H](N)C(=O)O)C(=O)O .
# output > 30 µM

# input Now try CNC[C@H](O)c1cccc(O)c1 .
# output > 30 µM

# input Now try C=C1c2c(Cl)ccc(O)c2C(=O)C2=C(O)[C@]3(O)C(=O)C(C(N)=O)=C(O)[C@@H](N(C)C)[C@@H]3[C@@H](O)[C@H]12 .
# output > 30 µM

# input Now try O=C(CCCN1CC=C(n2c(=O)[nH]c3ccccc32)CC1)c1ccc(F)cc1 .
# output > 30 µM

# input Now try Cc1onc(-c2c(Cl)cccc2Cl)c1C(=O)N[C@@H]1C(=O)N2[C@@H]1SC(C)(C)[C@@H]2C(=O)O .
# output > 30 µM
